target: human δ opioid receptors (hDOR) (Homo sapiens, UniProt P41143); construct: expressed in transfected cells; host or cells: HN9.10 neuroblastoma cell line, pCDNA3, neomycin-selected clones; assay: [35S]GTP-γ-S binding assay, hDOR; type: biochemical; conditions: read-out: GTP binding hDOR Emax
Sequence (P41143 whole entry): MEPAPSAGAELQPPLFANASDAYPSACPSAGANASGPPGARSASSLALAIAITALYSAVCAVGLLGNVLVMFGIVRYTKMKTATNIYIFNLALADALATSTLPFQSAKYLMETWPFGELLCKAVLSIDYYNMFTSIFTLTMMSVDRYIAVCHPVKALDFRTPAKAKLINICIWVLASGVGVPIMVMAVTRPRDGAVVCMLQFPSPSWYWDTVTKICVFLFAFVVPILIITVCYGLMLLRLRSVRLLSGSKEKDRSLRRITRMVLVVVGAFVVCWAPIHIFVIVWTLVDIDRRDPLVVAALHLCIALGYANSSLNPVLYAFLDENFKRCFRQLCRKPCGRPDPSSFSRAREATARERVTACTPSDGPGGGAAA
assay_readout: Emax (%)
Supply the numeric figure in %, leaving out any unit text.

Specify the recorded Emax for CSCC[C@H](NC(=O)[C@H](Cc1ccccc1)NC(=O)CNC(=O)[C@@H](C)NC(=O)[C@@H](N)Cc1ccc(O)cc1)C(=O)N1CCC[C@H]1C(=O)N[C@@H](CC(C)C)C(=O)N[C@@H](Cc1c[nH]c2ccccc12)C(=O)OCc1cc(C(F)(F)F)cc(C(F)(F)F)c1 , system: human δ opioid receptors (hDOR) (Homo sapiens, UniProt P41143).
47.6

# return Emax for CCCC[C@H](NC(=O)[C@H](Cc1ccccc1)NC(=O)CNC(=O)[C@@H](C)NC(=O)[C@@H](N)Cc1ccc(O)cc1)C(=O)N1CCC[C@H]1C(=O)NC(COC1OC(CO)C(O)C(O)C1O)C(=O)N[C@@H](Cc1c[nH]c2ccccc12)C(=O)NCc1cc(C(F)(F)F)cc(C(F)(F)F)c1 (some centres unmarked) , test system: human δ opioid receptors (hDOR) (Homo sapiens, UniProt P41143)
62

====

Can you tell me LogEC50, hDOR, [35S]GTP-γ-S binding for the items I'm about to list?
molecular target: human δ opioid receptors (hDOR) (Homo sapiens, UniProt P41143); construct: expressed in transfected cells; host or cells: HN9.10 neuroblastoma cell line, pCDNA3, neomycin-selected clones; assay: [35S]GTP-γ-S binding assay, hDOR; format: biochemical
Peptide text beside a SMILES is read from it.

Output measured LogEC50, hDOR, [35S]GTP-γ-S binding for this item: CC(C)C[C@H](NC(=O)[C@@H]1CCCN1C(=O)[C@H](CC[S+](C)[O-])NC(=O)[C@H](Cc1ccccc1)NC(=O)CNC(=O)[C@@H](C)NC(=O)[C@@H](N)Cc1ccc(O)cc1)C(=O)N[C@@H](Cc1c[nH]c2ccccc12)C(=O)OCc1cc(C(F)(F)F)cc(C(F)(F)F)c1 (stereo partly shown)
−8.73 ± 0.20

Name the recorded LogEC50, hDOR, [35S]GTP-γ-S binding of the item CCCC[C@H](NC(=O)[C@H](Cc1ccccc1)NC(=O)CNC(=O)[C@@H](C)NC(=O)[C@@H](N)Cc1ccc(O)cc1)C(=O)N1CCC[C@H]1C(=O)N[C@@H](CC(C)C)C(=O)N[C@@H](Cc1c[nH]c2ccccc12)C(=O)OCc1cc(C(F)(F)F)cc(C(F)(F)F)c1 in your answer.
−8.40 ± 0.11

Kindly indicate its recorded LogEC50, hDOR, [35S]GTP-γ-S binding. Item: CC(C)C[C@H](NC(=O)[C@@H]1CCCN1C(=O)[C@H](CC(C)C)NC(=O)[C@H](Cc1ccccc1)NC(=O)CNC(=O)[C@@H](C)NC(=O)[C@@H](N)Cc1ccc(O)cc1)C(=O)N[C@@H](Cc1c[nH]c2ccccc12)C(=O)OCc1cc(C(F)(F)F)cc(C(F)(F)F)c1
−8.09 ± 0.18

// fetch LogEC50, hDOR, [35S]GTP-γ-S binding given entry CCCC[C@@H](C(=O)N1CCC[C@H]1C(=O)N[C@@H](CC(C)C)C(=O)N[C@@H](Cc1c[nH]c2ccccc12)C(=O)OCc1cc(C(F)(F)F)cc(C(F)(F)F)c1)N(C)C(=O)[C@H](Cc1ccccc1)NC(=O)CNC(=O)[C@@H](C)NC(=O)[C@@H](N)Cc1ccc(O)cc1
−6.44 ± 0.27

Tell us which LogEC50, hDOR, [35S]GTP-γ-S binding value is on record for CC(C)C[C@H](NC(=O)[C@@H]1CCCN1C(=O)[C@@H](Cc1ccccc1)NC(=O)[C@H](Cc1ccccc1)NC(=O)CNC(=O)[C@@H](C)NC(=O)[C@@H](N)Cc1ccc(O)cc1)C(=O)N[C@@H](Cc1c[nH]c2ccccc12)C(=O)OCc1cc(C(F)(F)F)cc(C(F)(F)F)c1
−7.78 ± 0.36

Dear colleague, please send me the reported LogEC50, hDOR, [35S]GTP-γ-S binding for CC(C)C[C@H](NC(=O)[C@@H]1CCCN1C(=O)[C@H](Cc1ccccc1)NC(=O)[C@H](Cc1ccccc1)NC(=O)CNC(=O)[C@@H](C)NC(=O)[C@@H](N)Cc1ccc(O)cc1)C(=O)N[C@@H](Cc1c[nH]c2ccccc12)C(=O)OCc1cc(C(F)(F)F)cc(C(F)(F)F)c1 when you can.
−7.68 ± 0.20

Given CC(C)C[C@H](NC(=O)[C@@H]1CCCN1C(=O)CNC(=O)[C@H](Cc1ccccc1)NC(=O)CNC(=O)[C@@H](C)NC(=O)[C@@H](N)Cc1ccc(O)cc1)C(=O)N[C@@H](Cc1c[nH]c2ccccc12)C(=O)OCc1cc(C(F)(F)F)cc(C(F)(F)F)c1 [TY006] (HELM PEPTIDE1{Y.[dA].G.F.G.P.L.W.[FC(F)(F)c1cc(CO[*:1])cc(C(F)(F)F)c1]}$$$$V2.0) , respond with its LogEC50, hDOR, [35S]GTP-γ-S binding.
−7.30 ± 0.24

====

target: rat μ opioid receptors (rMOR) (Rattus norvegicus, UniProt P33535); construct: expressed in transfected cells; host or cells: HN9.10 neuroblastoma cell line, pCDNA3, neomycin-selected clones; test: biochemical; format: biochemical; conditions: net total bound/basal binding × 100; read-out: Emax, rMOR, [35S]GTP-γ-S binding
Sequence (P33535 whole entry): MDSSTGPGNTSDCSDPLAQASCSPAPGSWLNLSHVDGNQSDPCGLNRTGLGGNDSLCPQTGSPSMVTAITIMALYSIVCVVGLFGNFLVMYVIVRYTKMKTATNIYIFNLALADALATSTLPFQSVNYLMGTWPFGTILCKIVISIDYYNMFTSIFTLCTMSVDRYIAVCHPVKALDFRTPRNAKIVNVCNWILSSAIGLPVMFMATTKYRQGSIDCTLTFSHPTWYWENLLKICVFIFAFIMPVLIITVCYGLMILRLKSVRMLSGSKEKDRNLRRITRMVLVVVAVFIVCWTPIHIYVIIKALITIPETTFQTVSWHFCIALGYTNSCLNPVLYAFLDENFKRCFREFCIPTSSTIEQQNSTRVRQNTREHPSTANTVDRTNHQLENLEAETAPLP
Peptide text beside a SMILES is read from it.
assay_readout: Emax

Please indicate Emax recorded for CC(C)C[C@H](NC(=O)[C@@H]1CCCN1C(=O)[C@@H](Cc1ccccc1)NC(=O)[C@H](Cc1ccccc1)NC(=O)CNC(=O)[C@@H](C)NC(=O)[C@@H](N)Cc1ccc(O)cc1)C(=O)N[C@@H](Cc1c[nH]c2ccccc12)C(=O)OCc1cc(C(F)(F)F)cc(C(F)(F)F)c1 [TY007]
22%

Find the measured Emax of CC(C)C[C@H](NC(=O)[C@@H]1CCCN1C(=O)[C@H](Cc1ccccc1)NC(=O)[C@H](Cc1ccccc1)NC(=O)CNC(=O)[C@@H](C)NC(=O)[C@@H](N)Cc1ccc(O)cc1)C(=O)N[C@@H](Cc1c[nH]c2ccccc12)C(=O)OCc1cc(C(F)(F)F)cc(C(F)(F)F)c1 [TY003] and report it.
41%

Consider the compound CC(C)C[C@H](NC(=O)[C@@H]1CCCN1C(=O)[C@H]1CSSC[C@@H](NC(=O)[C@@H](N)Cc2ccc(O)cc2)C(=O)NCC(=O)N[C@@H](Cc2ccccc2)C(=O)N1)C(=O)N[C@@H](Cc1c[nH]c2ccccc12)C(=O)NCc1cc(C(F)(F)F)cc(C(F)(F)F)c1 [TY037, [D-Cys^2, D-Cys^5]TY027] . State its measured Emax.
< 20%

Give reported Emax value for CC(C)C[C@H](NC(=O)[C@@H]1CCCN1C(=O)[C@@H]1CSSC[C@@H](NC(=O)[C@@H](N)Cc2ccc(O)cc2)C(=O)NCC(=O)N[C@@H](Cc2ccccc2)C(=O)N1)C(=O)N[C@@H](Cc1c[nH]c2ccccc12)C(=O)NCc1cc(C(F)(F)F)cc(C(F)(F)F)c1 [TY039]
< 20%

Please list Emax recorded for the compound CC(C)C[C@H](NC(=O)[C@@H]1CCCN1C(=O)CNC(=O)[C@H](Cc1ccccc1)NC(=O)CNC(=O)[C@@H](C)NC(=O)[C@@H](N)Cc1ccc(O)cc1)C(=O)N[C@@H](Cc1c[nH]c2ccccc12)C(=O)OCc1cc(C(F)(F)F)cc(C(F)(F)F)c1 [TY006] (HELM PEPTIDE1{Y.[dA].G.F.G.P.L.W.[FC(F)(F)c1cc(CO[*:1])cc(C(F)(F)F)c1]}$$$$V2.0)
39%

====

target: human δ opioid receptors (hDOR) (Homo sapiens, UniProt P41143); construct: expressed in transfected cells; host or cells: HN9.10 neuroblastoma cell line, pCDNA3, neomycin-selected clones; assay: [35S]GTP-γ-S binding assay, hDOR; assay type: biochemical; conditions: Table 33; read-out: GTP EC50 (nM) hDOR
assay_readout: EC50 (nM)
# value in nM; strip the unit string

Fill in reported EC50 for this entry: C[C@@H](NC(=O)[C@@H](N)Cc1ccc(O)cc1)C(=O)N[C@@H](Cc1c[nH]c2ccccc12)C(=O)OCc1cc(C(F)(F)F)cc(C(F)(F)F)c1
90.9

====

assay: Solubility in HEPES buffer; assay type: physicochemical; conditions: Table 26; HEPES buffer pH 7.4
assay_readout: solubility thermodynamic

Give a short answer stating reported solubility thermodynamic for CCCC[C@H](NC(=O)[C@H](Cc1ccccc1)NC(=O)CNC(=O)[C@@H](C)NC(=O)[C@@H](N)Cc1ccc(O)cc1)C(=O)N[C@@H](COC1O[C@H](CO)[C@@H](O)[C@H](O)[C@H]1O)C(=O)N[C@@H](CC(C)C)C(=O)N[C@@H](Cc1c[nH]c2ccccc12)C(=O)NCc1cc(C(F)(F)F)cc(C(F)(F)F)c1 (stereo partly shown) .
< 1 µg/mL
